This section lists pIC50 readings for Serine/threonine-protein kinase B-raf (Homo sapiens, UniProt P15056).
One number for each entry, as −log10 of the molar value.

N#Cc1c(Oc2ccc(F)c(NC(=O)Cc3cccc(C(F)(F)F)c3)c2)ccc2nc(NC(=O)COCCOCCOCCOCC(=O)Nc3nc4ccc(Oc5ccc(F)c(NC(=O)Cc6cccc(C(F)(F)F)c6)c5)c(C#N)c4s3)sc12: 6.21
COCCOCC(=O)Nc1nc2ccc(Oc3ccc(F)c(NC(=O)Cc4cccc(C(F)(F)F)c4)c3)c(C#N)c2s1: 8.24
N#Cc1c(Oc2ccc(F)c(NC(=O)Cc3cccc(C(F)(F)F)c3)c2)ccc2nc(NC(=O)COCCOCCOCCOCCOCCOCCOCC(=O)Nc3nc4ccc(Oc5ccc(F)c(NC(=O)Cc6cccc(C(F)(F)F)c6)c5)c(C#N)c4s3)sc12: 6.14
N#Cc1c(Oc2ccc(F)c(NC(=O)Cc3cccc(C(F)(F)F)c3)c2)ccc2nc(NC(=O)COCC(=O)Nc3nc4ccc(Oc5ccc(F)c(NC(=O)Cc6cccc(C(F)(F)F)c6)c5)c(C#N)c4s3)sc12: 6.27

Kindly review the next molecule as well.
Request: Reported pIC50 for N#Cc1c(Oc2ccc(F)c(NC(=O)Cc3cccc(C(F)(F)F)c3)c2)ccc2nc(NC(=O)COCCOCCOCC(=O)Nc3nccs3)sc12 : what is it?
Response: 7.69
